- Test system: U2OS
- assay_method_text: Multiplex assay against U2OS
- Type: toxicity, cell-based
- condition_context: human, 48 h, 1 µM, compound concentration 1 uM, replicate 1
endpoint_label: Population Fragmented Nuclei (%)
Respond numerically; units are % and should not be typed.

Take a look at these entries with their results.
compound | target_entity | Population Fragmented Nuclei (%)
O=C1COc2nccc(-c3ccccc3F)c2CN1Cc1cc(C(F)(F)F)cc(C(F)(F)F)c1 | U2OS | 16
CC(C)(C)c1ccc(S(=O)(=O)Nc2ccc(Cl)cc2C(=O)c2cc[n+]([O-])cc2)cc1 [VERCIRNON] | U2OS | 19
N#Cc1c(N)nc(SCc2csc(-c3ccc(Cl)cc3)n2)c(C#N)c1-c1ccc(OCCO)cc1 [CAPADENOSON] | U2OS | 23

IN: Param item = O=S(=O)(c1ccccc1)c1cnc2c(N3CCNCC3)cccc2c1 [INTEPIRDINE] ; retrieve measured Population Fragmented Nuclei (%).
OUT: 15

IN: GET /values?readout=Population Fragmented Nuclei (%)&item= CSc1ccccc1N1CCN(CCCCCC(=O)NC2CCCc3ccccc32)CC1.Cl (centres undefined)
OUT: 25

IN: Endpoint output: Population Fragmented Nuclei (%) of CCCN1CCC[C@@H]2Cc3n[nH]cc3C[C@H]21.Cl [QUINPIROLE HYDROCHLORIDE] . Value?
OUT: 19
